Catalogue of MIC 50% readings, one per entry.
# System: Staph. aureus ATCC 25923 (MSSA)
# Assay Method Text: MIC by broth dilution method
# Assay type: cell-based
# Experimental Setup: MSSA ATCC 25923 (Table 4)
# Procedure: The minimal inhibitory concentration (MIC) of the antibacterial compounds may be determined using the broth dilution method, according to CLSI guidelines. Test compound solutions (or antibiotic solutions used as positive controls) were diluted, serially, with MHB medium. […] Growth (or lack thereof) of the microorganisms was determined after incubation for 24 hours at 37° C. by turbidimetry (wavelength of 600 nm). […]
Outcome Measure: MIC 50% (µg/mL)

>>> print(df.to_string())
                                   molecule  outcome_measure  unit_tag  observed_measurement
0  CN1CCN(C2CCN(Cc3cc(C(C)(C)C)ccc3OCc3ccccc3)CCC2O)CC1 (stereo not shown)          MIC 50%     µg/mL                    32
1  CCCc1ccc(OCc2ccccc2)c(CN2CCC3(CC2)CC(N(C)C)C(C)(O)CO3)c1 (stereo not shown)          MIC 50%     µg/mL                    16
2  CC1(C)S[C@@H]2[C@H](NC(=O)[C@H](N)c3ccc(O)cc3)C(=O)N2[C@H]1C(=O)O [AMOXICILLIN, reference compound]          MIC 50%     µg/mL                     4
3  OC1C(NCc2ccccc2)CCCC1Oc1ccccc1Oc1ccc(Cl)cc1 (stereo not shown)          MIC 50%     µg/mL                     4
